# credit: patent US20220306659A1

Attribute: IC50
- TGT: ALK^G1202R (Homo sapiens, UniProt Q9UM73, G1202R)
- Sequence (Q9UM73 19-1620 G1202R): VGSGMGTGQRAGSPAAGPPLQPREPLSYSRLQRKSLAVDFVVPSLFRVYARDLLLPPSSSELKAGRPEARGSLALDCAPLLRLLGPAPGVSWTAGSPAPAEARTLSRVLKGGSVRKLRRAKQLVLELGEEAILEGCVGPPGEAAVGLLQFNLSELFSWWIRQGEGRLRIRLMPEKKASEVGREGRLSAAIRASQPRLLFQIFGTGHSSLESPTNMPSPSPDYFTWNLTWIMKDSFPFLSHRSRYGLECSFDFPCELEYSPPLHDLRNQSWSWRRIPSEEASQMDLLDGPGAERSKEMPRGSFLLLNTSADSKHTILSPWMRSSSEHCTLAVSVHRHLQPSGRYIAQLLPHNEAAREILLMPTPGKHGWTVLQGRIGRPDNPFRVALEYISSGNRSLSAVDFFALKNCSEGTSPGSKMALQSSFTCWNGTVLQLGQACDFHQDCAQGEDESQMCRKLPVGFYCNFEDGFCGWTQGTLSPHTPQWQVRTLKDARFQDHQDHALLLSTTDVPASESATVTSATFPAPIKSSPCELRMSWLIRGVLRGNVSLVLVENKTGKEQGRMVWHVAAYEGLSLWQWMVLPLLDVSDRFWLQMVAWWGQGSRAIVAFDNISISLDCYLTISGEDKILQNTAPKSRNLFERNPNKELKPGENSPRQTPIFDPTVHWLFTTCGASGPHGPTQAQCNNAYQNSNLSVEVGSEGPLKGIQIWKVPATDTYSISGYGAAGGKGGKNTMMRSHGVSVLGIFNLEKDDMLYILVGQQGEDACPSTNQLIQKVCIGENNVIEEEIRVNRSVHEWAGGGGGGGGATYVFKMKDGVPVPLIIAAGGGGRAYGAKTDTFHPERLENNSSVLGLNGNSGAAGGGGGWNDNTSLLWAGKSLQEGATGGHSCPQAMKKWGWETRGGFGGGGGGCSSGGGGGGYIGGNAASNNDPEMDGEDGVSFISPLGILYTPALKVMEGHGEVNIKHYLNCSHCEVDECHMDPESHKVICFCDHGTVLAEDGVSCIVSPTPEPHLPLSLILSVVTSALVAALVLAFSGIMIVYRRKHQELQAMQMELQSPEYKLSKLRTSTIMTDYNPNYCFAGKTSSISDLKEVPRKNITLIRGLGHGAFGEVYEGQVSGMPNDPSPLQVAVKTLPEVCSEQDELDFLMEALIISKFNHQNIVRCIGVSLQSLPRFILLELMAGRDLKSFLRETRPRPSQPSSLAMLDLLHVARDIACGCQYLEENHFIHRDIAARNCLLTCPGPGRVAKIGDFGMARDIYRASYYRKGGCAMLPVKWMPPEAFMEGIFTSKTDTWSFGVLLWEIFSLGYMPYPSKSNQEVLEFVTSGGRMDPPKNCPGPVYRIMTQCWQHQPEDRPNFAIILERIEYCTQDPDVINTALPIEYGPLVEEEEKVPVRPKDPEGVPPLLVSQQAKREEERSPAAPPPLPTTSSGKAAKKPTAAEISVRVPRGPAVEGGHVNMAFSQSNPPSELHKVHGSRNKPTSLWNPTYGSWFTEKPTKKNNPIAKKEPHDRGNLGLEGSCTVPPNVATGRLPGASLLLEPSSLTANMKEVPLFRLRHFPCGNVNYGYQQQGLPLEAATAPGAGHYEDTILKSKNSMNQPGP
- ASSAY OVERVIEW: Assay of activity on ALK kinase
- Format: biochemical
- CONDITION NOTES: kinase inhibition

Known IC50 results, listed for orientation:
Report IC50 for COc1cc(N2CCC(N3CCN(CCCCC#Cc4cccc5c4CN(C4CCC(=O)NC4=O)C5=O)CC3)CC2)ccc1Nc1ncc(Cl)c(Nc2ccccc2P(C)(C)=O)n1 (centres unmarked) please.
201 to 300 nM

Report IC50 for COc1cc(N2CCC(N3CCN(C(=O)C(C)(C)COC(=O)COc4cccc5c4C(=O)N(C4CCC(=O)NC4=O)C5=O)CC3)CC2)ccc1Nc1ncc(Cl)c(Nc2ccccc2P(C)(C)=O)n1 (centres unmarked) please.
1 to 100 nM

Report IC50 for COc1cc(N2CCC(N3CCN(CC(=O)N4CCC[C@H]4COc4cccc5c4C(=O)N(C4CCC(=O)NC4=O)C5=O)CC3)CC2)ccc1Nc1ncc(Cl)c(Nc2ccccc2P(C)(C)=O)n1 (some centres unmarked) please.
1 to 100 nM

Report IC50 for COc1cc(N2CCC(N3CCN(C(=O)CC4(CSCC(=O)Nc5cccc6c5C(=O)N(C5CCC(=O)NC5=O)C6=O)CC4)CC3)CC2)ccc1Nc1ncc(Cl)c(Nc2ccccc2P(C)(C)=O)n1 (centres unmarked) please.
> 300 nM

New cases:
Report IC50 for COc1cc(N2CCC(N3CCN(CCCCCCCCCNc4cccc5c4CN(C4CCC(=O)NC4=O)C5=O)CC3)CC2)ccc1Nc1ncc(Cl)c(Nc2ccccc2P(C)(C)=O)n1 (centres unmarked) please.
> 300 nM
